Experiment: Pharmacokinetic evaluation of liquid bevirimat dosage forms, oral gavage, male Cynomolgus monkeys
Conditions: male, cynomolgus monkey, in vivo, po, 50 mg, Cmax, 12.5 mg FAE/mL in 40% PG, 20% Glycerin, 1% TPGS, 0.25% Tween80, 0.2% Povidone K15, 50 mg FAE/monkey oral gavage; monkeys 117,118,119,AVG
quantity: Cmax (µg/mL)
Give the quantity in µg/mL, number only.

# input compound: C=C(C)[C@@H]1CC[C@]2(C(=O)O)CC[C@]3(C)[C@H](CC[C@@H]4[C@@]5(C)CC[C@H](OC(=O)CC(C)(C)C(=O)O)C(C)(C)[C@@H]5CC[C@]43C)[C@@H]12 [Bevirimat] ; wanted: its Cmax 93.3

---

Test: Pharmacokinetic evaluation of liquid bevirimat dosage forms, oral gavage, male Cynomolgus monkeys
Conditions: male, cynomolgus monkey, in vivo, po, 50 mg, t1/2, 12.5 mg FAE/mL in 15% EtOH:0.5% TPGS:15% PG:5% Glycerin, 50 mg FAE/monkey oral gavage; monkeys 117,118,119,AVG
quantity: half-life (h)
Give the quantity in h, number only.

# input molecule: C=C(C)[C@@H]1CC[C@]2(C(=O)O)CC[C@]3(C)[C@H](CC[C@@H]4[C@@]5(C)CC[C@H](OC(=O)CC(C)(C)C(=O)O)C(C)(C)[C@@H]5CC[C@]43C)[C@@H]12 [Bevirimat] ; wanted: its half-life 12

---

Experiment: in vivo
Conditions: male, cynomolgus monkey, in vivo, po, 200 mg, pH 8, AUCall
quantity: AUC (µg·h/mL)
Give the quantity in µg·h/mL, number only.

# input compound: C=C(C)[C@@H]1CC[C@]2(C(=O)O)CC[C@]3(C)[C@H](CC[C@@H]4[C@@]5(C)CC[C@H](OC(=O)CC(C)(C)C(=O)O)C(C)(C)[C@@H]5CC[C@]43C)[C@@H]12 ; wanted: its AUC 1390

---

Assay: Pharmacokinetic evaluation of liquid bevirimat dosage forms, oral gavage, male Cynomolgus monkeys
Conditions: male, cynomolgus monkey, in vivo, po, 50 mg/monkey, Plasma Concentration, PG/glycerin/Vitamin ETPGS/ethanol formulation; 4.0 hr; individual monkey
quantity: concentration at 4 h (ng/mL)
Give the quantity in ng/mL, number only.

# input compound: C=C(C)[C@@H]1CC[C@]2(C(=O)O)CC[C@]3(C)[C@H](CC[C@@H]4[C@@]5(C)CC[C@H](OC(=O)CC(C)(C)C(=O)O)C(C)(C)[C@@H]5CC[C@]43C)[C@@H]12 [Bevirimat] ; wanted: its concentration at 4 h 34500

---

Experiment: Pharmacokinetic evaluation of liquid bevirimat dosage forms, oral gavage, male Cynomolgus monkeys
Conditions: male, cynomolgus monkey, in vivo, po, 50 mg FAE/monkey, Plasma concentration, 2.0 hr; 12.5 mg FAE/mL in 15% EtOH:0.5% TPGS:15% PG:5% Glycerin, 0.2% Povidone K90, 50 mg FAE/monkey oral gavage; monkeys 117,118,119,AVG
quantity: concentration at 2 hr (µg/mL)
Give the quantity in µg/mL, number only.

# input molecule: C=C(C)[C@@H]1CC[C@]2(C(=O)O)CC[C@]3(C)[C@H](CC[C@@H]4[C@@]5(C)CC[C@H](OC(=O)CC(C)(C)C(=O)O)C(C)(C)[C@@H]5CC[C@]43C)[C@@H]12 ; wanted: its concentration at 2 hr 51.3

---

Assay: Pharmacokinetic evaluation of liquid bevirimat dosage forms, oral gavage, male Cynomolgus monkeys
Settings: male, cynomolgus monkey, in vivo, po, 200 mg, t1/2, oral, 200 mg/monkey, PG/glycerin/Vitamin ETPGS/ethanol formulation; individual monkey
quantity: half-life (h)
Give the quantity in h, number only.

# input molecule: C=C(C)[C@@H]1CC[C@]2(C(=O)O)CC[C@]3(C)[C@H](CC[C@@H]4[C@@]5(C)CC[C@H](OC(=O)CC(C)(C)C(=O)O)C(C)(C)[C@@H]5CC[C@]43C)[C@@H]12 [Bevirimat] ; wanted: its half-life 11.4

---

Assay: Pharmacokinetic evaluation of liquid bevirimat dosage forms, oral gavage, male Cynomolgus monkeys
Conditions: male, cynomolgus monkey, in vivo, 50 mg/kg, pH 8
Excerpt: Six male Cynomolgus monkeys having an initial body weight of about 3.5 to about 4.5 kg are allowed 7 days to acclimate to their individual housing units. Monkeys are supplied with water and a commercial diet ad libitum prior to the study initiation. Food is withheld from the monkeys for a minimum of twelve hours before the study and during the study until four hours postdose when food is returned. Water is supplied ad libitum. […]
quantity: concentration at 12 hr
Answer format reminder: number followed by unit.

# input molecule: C=C(C)[C@@H]1CC[C@]2(C(=O)O)CC[C@]3(C)[C@H](CC[C@@H]4[C@@]5(C)CC[C@H](OC(=O)CC(C)(C)C(=O)O)C(C)(C)[C@@H]5CC[C@]43C)[C@@H]12 ; wanted: its concentration at 12 hr 47500 ng/mL

---

Assay: Pharmacokinetic evaluation of liquid bevirimat dosage forms, oral gavage, male Cynomolgus monkeys
Settings: male, cynomolgus monkey, in vivo, po, 50 mg/monkey, Plasma Concentration, PG/glycerin/Vitamin ETPGS/ethanol formulation; 8.0 hr; AVG
Excerpt: Six male Cynomolgus monkeys having an initial body weight of about 3.5 to about 4.5 kg are allowed 7 days to acclimate to their individual housing units. Monkeys are supplied with water and a commercial diet ad libitum prior to the study initiation. Food is withheld from the monkeys for a minimum of twelve hours before the study and during the study until four hours postdose when food is returned. Water is supplied ad libitum. […]
quantity: concentration at 8 hr
Answer format reminder: number followed by unit.

# input molecule: C=C(C)[C@@H]1CC[C@]2(C(=O)O)CC[C@]3(C)[C@H](CC[C@@H]4[C@@]5(C)CC[C@H](OC(=O)CC(C)(C)C(=O)O)C(C)(C)[C@@H]5CC[C@]43C)[C@@H]12 ; wanted: its concentration at 8 hr 14700 ng/mL

---

Assay: Pharmacokinetic evaluation of bevirimat HPβCD formulation, intravenous, male Cynomolgus monkeys
Conditions: male, cynomolgus monkey, in vivo, iv, 10 mg FAE/monkey, Plasma concentration, 1.0 hr; 2.5 mg FAE/mL in 10% HPβCD+3% Mannitol in water, 10 mg FAE/monkey intravenous injection; monkeys 115,116,120,AVG
quantity: concentration at 1 hr (ng/mL)
Give the quantity in ng/mL, number only.

# input molecule: C=C(C)[C@@H]1CC[C@]2(C(=O)O)CC[C@]3(C)[C@H](CC[C@@H]4[C@@]5(C)CC[C@H](OC(=O)CC(C)(C)C(=O)O)C(C)(C)[C@@H]5CC[C@]43C)[C@@H]12 [Bevirimat] ; wanted: its concentration at 1 hr 22800

---

Assay: in vivo
Conditions: male, cynomolgus monkey, in vivo
quantity: bioavailability

# input compound: C=C(C)[C@@H]1CC[C@]2(C(=O)O)CC[C@]3(C)[C@H](CC[C@@H]4[C@@]5(C)CC[C@H](OC(=O)CC(C)(C)C(=O)O)C(C)(C)[C@@H]5CC[C@]43C)[C@@H]12 ; wanted: its bioavailability ~55%

---

Experiment: Pharmacokinetic evaluation of liquid bevirimat dosage forms, oral gavage, male Cynomolgus monkeys
Details: male, cynomolgus monkey, in vivo, po, 50 mg FAE/monkey, Plasma concentration, 72 hr; 12.5 mg FAE/mL in 10% HPβCD, 50 mg FAE/monkey oral gavage; monkeys 186,116,120,AVG; BLOQ=below 50 ng/mL
quantity: concentration at 72 hr (ng/mL)
Give the quantity in ng/mL, number only.

# input compound: C=C(C)[C@@H]1CC[C@]2(C(=O)O)CC[C@]3(C)[C@H](CC[C@@H]4[C@@]5(C)CC[C@H](OC(=O)CC(C)(C)C(=O)O)C(C)(C)[C@@H]5CC[C@]43C)[C@@H]12 ; wanted: its concentration at 72 hr 120

---

Test: Pharmacokinetic evaluation of bevirimat HPβCD formulation, intravenous, male Cynomolgus monkeys
Settings: male, cynomolgus monkey, plasma, iv, 10 mg, CL, 2.5 mg FAE/mL in 10% HPβCD+3% Mannitol in water, 10 mg FAE/monkey intravenous injection; monkeys 115,116,120,AVG
quantity: clearance (mL/min/kg)
Give the quantity in mL/min/kg, number only.

# input molecule: C=C(C)[C@@H]1CC[C@]2(C(=O)O)CC[C@]3(C)[C@H](CC[C@@H]4[C@@]5(C)CC[C@H](OC(=O)CC(C)(C)C(=O)O)C(C)(C)[C@@H]5CC[C@]43C)[C@@H]12 ; wanted: its clearance 0.333

---

Experiment: Pharmacokinetic evaluation of liquid bevirimat dosage forms, oral gavage, male Cynomolgus monkeys
Details: male, cynomolgus monkey, in vivo, po, 50 mg FAE/monkey, Plasma concentration, 1.0 hr; 12.5 mg FAE/mL in 10% HPβCD, 50 mg FAE/monkey oral gavage; monkeys 186,116,120,AVG
quantity: concentration at 1 hr (µg/mL)
Give the quantity in µg/mL, number only.

# input molecule: C=C(C)[C@@H]1CC[C@]2(C(=O)O)CC[C@]3(C)[C@H](CC[C@@H]4[C@@]5(C)CC[C@H](OC(=O)CC(C)(C)C(=O)O)C(C)(C)[C@@H]5CC[C@]43C)[C@@H]12 [Bevirimat] ; wanted: its concentration at 1 hr 56.4
